The measurements presented in this section are drawn from patent US20220025023A1.

- TESTED_TARGET: T1, TDP-212 peptide (human)
- T1 construct: 8-mer of human TDP-43; same ELISA method as for the biotinylated 15-mers
- T1 peptide: SQYGDVMD
- EXPERIMENT_SUMMARY: indirect ELISA, 8-mer peptide library

- BINDER: "ACI-7062-412E12-Ab1 (antibody, IgG1, V domains shown, also called 412E12A2; clone 10) VH: DVQLVESGGGLVQPGGSRRLSCAASGFTFSRFGMHWVRQAPEKGLEWVAYIRSGSDIIYYADSVKGRFTISRDNPENTLFLQMTSLRSEDTAMYYCARSGTTVPFDYWGQGTSLTVSS VL: DIVMTQSPSSLAMSVGQKVTMSCKSSQSLLNSGDQKNYLAWYQQKPGQSPELLLYFASTRASGVPDRFIGSGSGTDFSLTISSVQAEDLADYFCQQHYSIPLTFGAGTKLELKR"
  binding result: "no binding"
- BINDER: "ACI-7062-412A7-Ab1 (antibody, IgG2b, V domains shown, also called 412A7B7; clone 9) VH: DVQLVESGGGLVQPGGSRRLSCAASGFTFSSFGMHWVRQAPEKGLEWVAYIRSGSDIIYYADSVKGRFTISRDNPENTLFLQMTSLRSEDTAMYYCARSGTTVPFDYWGQGTSLTVSS VL: DIVMTQSPSSLAMSVGQKVTMSCKSSQSLLNSGNQKNYLAWYQQKPGQSPELLLYFASTRASGVPDRFIGSGSGTDFTLTISSVQAEDLADYFCQQHYSIPLTFGAGTKLELKR"
  binding result: "no binding"
- BINDER: "ACI-7062-410H3-Ab1 (antibody, IgG1, V domains shown, also called 410H3B9; clone 7) VH: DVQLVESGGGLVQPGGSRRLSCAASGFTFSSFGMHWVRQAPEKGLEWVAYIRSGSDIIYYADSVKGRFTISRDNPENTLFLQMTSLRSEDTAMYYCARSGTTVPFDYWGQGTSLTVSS VL: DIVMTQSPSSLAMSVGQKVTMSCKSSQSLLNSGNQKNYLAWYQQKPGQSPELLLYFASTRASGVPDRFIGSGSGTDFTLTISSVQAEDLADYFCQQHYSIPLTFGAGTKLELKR"
  binding result: "no binding"
